target: PcpS (Pseudomonas aeruginosa, UniProt Q9I4H2); experiment: Carrier protein (CoA) competition assay with PcpS; assay type: biochemical, P. aeruginosa PAO1; conditions: competition with BpsA for limited CoA (250 nM), read-out: IC50 for carrier protein mediated inhibition of BpsA activation
Sequence (Q9I4H2 entry or part of it): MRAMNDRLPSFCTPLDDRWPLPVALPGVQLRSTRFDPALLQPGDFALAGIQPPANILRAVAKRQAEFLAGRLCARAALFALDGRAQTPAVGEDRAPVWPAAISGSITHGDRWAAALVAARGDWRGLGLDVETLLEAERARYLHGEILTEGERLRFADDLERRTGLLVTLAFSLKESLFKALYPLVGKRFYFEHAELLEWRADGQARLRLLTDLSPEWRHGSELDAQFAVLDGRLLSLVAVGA
QUANTITY_KIND: pIC50
The value called pIC50 is obtained by taking minus log10 of the concentration in mol/L.

The molecule The peptide carrier protein of BpsA (bPCP), purified recombinant His6 tagged (protein) FVAPRTETEKEIAAVWEKALRRENASVQDDFFESGGNSLIAVGLVRELNARLGVSLPLQSVLESPTIEKLARRLE showed pIC50 equal to 6.15
